# experimentDescription: Pharmacokinetic study: plasma cannabinoids after single oral gavage of full-spectrum cannabis extract or individual cannabinoid
# testParameters: both, mouse, plasma, po, Cmax, mouse plasma, oral, administered in full-spectrum extract; doses mg/kg: CBDA 50, CBDVA 7, CBGA 7
Attribute: Cmax

mol	Cmax, µg/mL
C=C(C)[C@@H]1CCC(C)=C[C@H]1c1c(O)cc(CCCCC)c(C(=O)O)c1O	47
CCCCCc1cc(O)c(C/C=C(\C)CCC=C(C)C)c(O)c1C(=O)O	12

====

# subjectOfTest: BCRP (Homo sapiens)
# Sequence (Q9UNQ0 1-655): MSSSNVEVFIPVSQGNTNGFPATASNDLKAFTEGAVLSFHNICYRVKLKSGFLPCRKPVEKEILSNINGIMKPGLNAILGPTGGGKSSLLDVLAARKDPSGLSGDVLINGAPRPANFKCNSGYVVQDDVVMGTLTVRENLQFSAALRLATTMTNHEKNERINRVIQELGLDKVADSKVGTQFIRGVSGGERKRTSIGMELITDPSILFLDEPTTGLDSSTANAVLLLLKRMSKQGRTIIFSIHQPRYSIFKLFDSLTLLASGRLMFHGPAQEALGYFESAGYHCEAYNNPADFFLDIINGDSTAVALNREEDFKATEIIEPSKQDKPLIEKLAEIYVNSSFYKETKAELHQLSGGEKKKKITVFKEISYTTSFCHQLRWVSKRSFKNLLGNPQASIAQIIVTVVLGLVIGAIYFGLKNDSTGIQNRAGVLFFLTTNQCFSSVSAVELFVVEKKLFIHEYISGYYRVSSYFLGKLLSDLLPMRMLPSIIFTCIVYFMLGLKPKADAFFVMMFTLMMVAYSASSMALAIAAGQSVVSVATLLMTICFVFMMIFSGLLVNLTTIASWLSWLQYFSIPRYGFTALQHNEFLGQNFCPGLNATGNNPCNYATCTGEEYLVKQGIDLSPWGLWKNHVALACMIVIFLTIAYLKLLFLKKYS
# experimentDescription: Bidirectional transwell substrate assay, MDCK cells expressing BCRP (with or without elacridar)
# testParameters: human, with elacridar 10 µM, r (transport efflux ratio), BCRP MDCK cells, 10 µM cannabinoid in the presence of 10 µM elacridar
Attribute: efflux ratio at 240 min, 10 µM

mol	efflux ratio at 240 min, 10 µM
C=C(C)[C@@H]1CCC(C)=C[C@H]1c1c(O)cc(CCCCC)cc1O	1
C=C(C)[C@@H]1CCC(C)=C[C@H]1c1c(O)cc(CCCCC)c(C(=O)O)c1O	0.4

====

# subjectOfTest: BCRP (Homo sapiens, UniProt Q9UNQ0)
# Sequence (Q9UNQ0 1-655): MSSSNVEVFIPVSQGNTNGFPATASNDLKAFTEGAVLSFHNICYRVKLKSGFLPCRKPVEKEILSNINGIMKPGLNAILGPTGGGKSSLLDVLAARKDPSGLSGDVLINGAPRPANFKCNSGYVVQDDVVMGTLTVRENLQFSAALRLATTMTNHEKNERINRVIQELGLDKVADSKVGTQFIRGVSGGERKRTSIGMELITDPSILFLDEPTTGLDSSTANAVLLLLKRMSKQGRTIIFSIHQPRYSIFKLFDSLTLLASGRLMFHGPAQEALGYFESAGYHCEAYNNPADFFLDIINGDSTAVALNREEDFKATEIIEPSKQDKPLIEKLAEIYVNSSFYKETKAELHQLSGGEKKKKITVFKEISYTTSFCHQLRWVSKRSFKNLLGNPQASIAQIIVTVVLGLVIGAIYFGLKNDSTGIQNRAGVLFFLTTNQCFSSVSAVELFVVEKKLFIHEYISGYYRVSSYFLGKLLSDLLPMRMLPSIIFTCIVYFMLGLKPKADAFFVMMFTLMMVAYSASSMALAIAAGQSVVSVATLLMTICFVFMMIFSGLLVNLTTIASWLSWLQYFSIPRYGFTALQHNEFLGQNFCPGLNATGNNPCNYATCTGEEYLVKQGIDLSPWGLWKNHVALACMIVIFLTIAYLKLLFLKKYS
# experimentDescription: Bidirectional transwell substrate assay, MDCK cells expressing BCRP (with or without elacridar)
# testParameters: human BCRP MDCK cells vs wildtype, with elacridar control

molecule	subjectOfTest	BCRP substrate status
C=C(C)[C@@H]1CCC(C)=C[C@H]1c1c(O)cc(CCC)c(C(=O)O)c1O [CBDVA, cannabidivarinic acid]	BCRP (Homo sapiens, UniProt Q9UNQ0)	BCRP substrates
C=C(C)[C@@H]1CCC(C)=C[C@H]1c1c(O)cc(CCCCC)cc1O [CBD, cannabidiol]	BCRP (Homo sapiens, UniProt Q9UNQ0)	BCRP substrates
CCCCCc1cc(O)c(C/C=C(\C)CCC=C(C)C)c(O)c1 [CBG, cannabigerol]	BCRP (Homo sapiens, UniProt Q9UNQ0)	weak substrates of BCRP
C=C(C)[C@@H]1CCC(C)=C[C@H]1c1c(O)cc(CCCCC)c(C(=O)O)c1O [CBDA, cannabidiolic acid]	BCRP (Homo sapiens, UniProt Q9UNQ0)	BCRP substrates
CCCCCc1cc(O)c2c(c1)OC(C)(C)[C@@H]1CCC(C)=C[C@@H]21 [Δ^9-THC, Δ^9-tetrahydrocannabinol, reference compound]	BCRP (Homo sapiens, UniProt Q9UNQ0)	weak substrates of BCRP
